Source of measurements: ChEMBL document CHEMBL4811252

Could you please report measured inhibition for the items listed next?
Molecular target: Histone deacetylase 1 (Homo sapiens, UniProt Q13547)
Sequence (Q13547 whole entry): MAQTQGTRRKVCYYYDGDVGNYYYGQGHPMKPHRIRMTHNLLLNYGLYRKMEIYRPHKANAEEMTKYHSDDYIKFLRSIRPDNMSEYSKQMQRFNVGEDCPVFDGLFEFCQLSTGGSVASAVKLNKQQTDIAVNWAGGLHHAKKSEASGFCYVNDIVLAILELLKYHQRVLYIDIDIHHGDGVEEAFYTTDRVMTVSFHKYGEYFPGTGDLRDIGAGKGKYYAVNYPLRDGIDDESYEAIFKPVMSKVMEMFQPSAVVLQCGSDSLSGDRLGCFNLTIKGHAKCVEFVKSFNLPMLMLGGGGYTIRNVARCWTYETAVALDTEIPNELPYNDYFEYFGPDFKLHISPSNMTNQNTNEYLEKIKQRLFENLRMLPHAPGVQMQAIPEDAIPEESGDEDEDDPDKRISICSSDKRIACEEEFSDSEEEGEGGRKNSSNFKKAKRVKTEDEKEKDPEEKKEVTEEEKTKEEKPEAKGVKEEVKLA
Details: dose 100.0 nM, time 40.0 min
The figure you give is taken to be in %; do not add the unit.

Enquiry: Name the reported inhibition value associated with the molecule "O=C(NO)c1ccc(NCc2nc(-c3ccccc3)nn2-c2cccc(Cl)c2)cc1"
Return: 14.7

Enquiry: Item "O=C(NO)c1ccc(NCc2nc(-c3ccccc3)nn2-c2ccc(F)cc2)cc1" has what recorded inhibition?
Return: 16.3

Enquiry: Entry "O=C(NO)c1ccc(NCc2nc(-c3ccc(Br)o3)nn2-c2ccccc2)cc1" : reported inhibition = ?
Return: 13.8

Enquiry: Please give the measured inhibition for this molecule: "Cc1ccc(-n2nc(-c3ccccc3)nc2CNc2ccc(C(=O)NO)cc2)cc1"
Return: 24.6

Enquiry: Data request, read-out inhibition, for "Cc1cc(C)cc(-n2nc(-c3ccccc3)nc2CNc2ccc(C(=O)NO)cc2)c1"
Return: 12.4

Enquiry: Look up inhibition: "Cc1ccc(-c2nc(CNc3ccc(C(=O)NO)cc3)n(-c3ccccc3)n2)s1"
Return: 30.1

Enquiry: Record request: inhibition value, item "O=C(NO)c1ccc(NCc2nc(-c3ccc(Cl)cc3)nn2-c2ccccc2)cc1"
Return: 19.5

Enquiry: Item "O=C(NO)c1ccc(NCc2nc(-c3cc4ccccc4s3)nn2-c2ccccc2)cc1" has what recorded inhibition?
Return: 26

Enquiry: Give its inhibition value. Item: "CNC(=O)c1ccc(NCc2nc(-c3ccccc3)nn2-c2ccccc2)cc1"
Return: -0.55

Enquiry: May I ask what inhibition has been recorded for "O=C(NO)c1ccc(NCc2nc(-c3ccccc3Cl)nn2-c2ccccc2)cc1" ?
Return: 15.6

Enquiry: Returns the measured inhibition for the input molecule. Input: "O=C(NO)c1ccc(NCc2nc(-c3ccc(Br)cc3)nn2-c2ccccc2)cc1"
Return: 13.2

Enquiry: # lookup: inhibition of "O=C(NO)c1ccc(NCc2nc(-c3cccnc3)nn2-c2ccccc2)cc1"
Return: 12.9

Enquiry: What value of inhibition has been recorded for this entry: "O=C(NO)c1ccc(NCc2nc(-c3ccccc3)nn2-c2ccccc2)cc1"
Return: 19

Enquiry: Any idea what inhibition was measured for "COc1ccc(-n2nc(-c3ccc(O)cc3)nc2CNc2ccc(C(=O)NO)cc2)cc1" ?
Return: 25.9

Enquiry: Form field: reported inhibition of "O=C(NO)c1ccc(NCc2nc(-c3ccc(C(F)(F)F)cc3)nn2-c2ccccc2)cc1"
Return: 4.9

Enquiry: For the molecule "O=C(NO)c1ccc(NCc2nc(-c3sccc3Br)nn2-c2ccccc2)cc1" , what inhibition is on record?
Return: 23.7

Enquiry: Form field: reported inhibition of "O=C(NO)c1ccc(NCc2nc(-c3ccc(Cl)s3)nn2-c2ccccc2)cc1"
Return: 8.3

Enquiry: Dear colleague, I am looking for the recorded inhibition of the following molecule: "O=C(NO)c1ccc(NCc2nc(-c3cccs3)nn2-c2ccc(O)cc2)cc1"
Return: 38.4

Enquiry: Please report the recorded inhibition for "CC(C)c1ccc(-c2nc(CNc3ccc(C(=O)NO)cc3)n(-c3ccccc3)n2)cc1" .
Return: 4.3

Enquiry: Using the record for "NC(=O)c1ccc(NCc2nc(-c3ccccc3)nn2-c2ccccc2)cc1" , report its inhibition.
Return: -2.6

Enquiry: Reported inhibition, molecule "Cc1ccc(-c2nc(CNc3ccc(C(=O)NO)cc3)n(-c3ccccc3)n2)cc1" : ____
Return: 20.3

Enquiry: Give the measured inhibition of "CCc1ccc(-n2nc(-c3ccccc3)nc2CNc2ccc(C(=O)NO)cc2)cc1" .
Return: 10.8

Enquiry: For the molecule "CC(C)c1ccc(-n2nc(-c3ccccc3)nc2CNc2ccc(C(=O)NO)cc2)cc1" , what inhibition is on record?
Return: 17.3

Enquiry: Requested read-out: inhibition. Entry: "NNC(=O)c1ccc(NCc2nc(-c3ccccc3)nn2-c2ccccc2)cc1"
Return: 4.1

Enquiry: Entry under review: "O=C(NO)c1ccc(NCc2nc(-c3ccccc3)nn2-c2ccc(Cl)cc2)cc1" . Reported inhibition?
Return: 18

Enquiry: Name the recorded inhibition for "O=C(NO)c1ccc(NCc2nc(-c3ccc(F)cc3)nn2-c2ccccc2)cc1" .
Return: 20.8

Enquiry: I'd like to know its inhibition. The molecule in question is "O=C(NO)c1ccc(NCc2nc(-c3ccncc3)nn2-c2ccccc2)cc1"
Return: 7.5

Enquiry: Can you share its inhibition? I mean this molecule: "Cc1cccc(-c2nc(CNc3ccc(C(=O)NO)cc3)n(-c3ccccc3)n2)c1"
Return: 13

Enquiry: Returns the measured inhibition for the input molecule. Input: "Cc1ccccc1-n1nc(-c2ccccc2)nc1CNc1ccc(C(=O)NO)cc1"
Return: 17

====

Molecular target: Protein deacetylase HDAC6 (Homo sapiens)
Test: Inhibition of recombinant full length human HDAC6 expressed in baculovirus infected Sf9 cells using Z-(Ac)-Lys-AMC as substrate incubated for 40 mins by fluorescence based assay
pIC50: −log10 of the molar value.
Decide by pIC50: equal to or exceeding 7 means met, less means not met.

Enquiry: Given the entry "O=C(NO)c1ccc(NCc2nc(-c3ccccc3Cl)nn2-c2ccccc2)cc1" , answer whether its pIC50 meets or surpasses 7.
Return: not met

Enquiry: Would you say "Cc1ccsc1-c1nc(CNc2ccc(C(=O)NO)cc2)n(-c2ccccc2)n1" shows pIC50 at minimum 7?
Return: met

Enquiry: // inclusive: pIC50 at least 7? input: "O=C(NO)c1ccc(NCc2nc(-c3ccc(Cl)cc3)nn2-c2ccccc2)cc1"
Return: not met

Enquiry: Form field: pIC50 at least 7? Entry: "Cc1ccc(-c2nc(CNc3ccc(C(=O)NO)cc3)n(-c3ccccc3)n2)cc1"
Return: not met

Enquiry: Hi team, for "Cc1cccc(-n2nc(-c3ccccc3)nc2CNc2ccc(C(=O)NO)cc2)c1" , is the recorded pIC50 at or above 7?
Return: not met

Enquiry: hey, is pIC50 for this one >= 7? "Cc1ccc(-n2nc(-c3ccccc3)nc2CNc2ccc(C(=O)NO)cc2)cc1"
Return: not met

Enquiry: Could you please find out whether "O=C(NO)c1ccc(NCc2nc(-c3ccccc3)nn2-c2cccc(Cl)c2)cc1" has pIC50 that meets 7 or exceeds it?
Return: not met

Enquiry: Hi team, for "Cc1ccc(-c2nc(CNc3ccc(C(=O)NO)cc3)n(-c3ccccc3)n2)s1" , is the recorded pIC50 at or above 7?
Return: met

====

Target: Histone deacetylase 1 (Homo sapiens, UniProt Q13547)
Conditions: dose 100.0 nM, time 40.0 min
assay.readout: inhibition (%)
Value expressed in %; do not type the unit.

Enquiry: So what's the measured inhibition for this one? "Cc1ccccc1-c1nc(CNc2ccc(C(=O)NO)cc2)n(-c2ccccc2)n1"
Return: 16.5

Enquiry: Look up inhibition for this molecule: "Cc1ccsc1-c1nc(CNc2ccc(C(=O)NO)cc2)n(-c2ccccc2)n1"
Return: 26.3

Enquiry: Entry under review: "O=C(NO)c1ccc(NCc2nc(-c3cccc(Cl)c3)nn2-c2ccccc2)cc1" . Reported inhibition?
Return: 17

Enquiry: Looking for the measured inhibition of "O=C(NO)c1ccc(NCc2nc(-c3ccccc3)nn2-c2ccc(Br)cc2)cc1" , can you help?
Return: 18.2

Enquiry: What value of inhibition has been reported for the following molecule? "O=C(NO)c1ccc(NCc2nc(-c3ccccc3)nn2-c2ccc(C(F)(F)F)cc2)cc1"
Return: 12.8

====

Molecular target: Protein deacetylase HDAC6 (Homo sapiens, UniProt Q9UBN7)
Sequence (Q9UBN7 whole entry): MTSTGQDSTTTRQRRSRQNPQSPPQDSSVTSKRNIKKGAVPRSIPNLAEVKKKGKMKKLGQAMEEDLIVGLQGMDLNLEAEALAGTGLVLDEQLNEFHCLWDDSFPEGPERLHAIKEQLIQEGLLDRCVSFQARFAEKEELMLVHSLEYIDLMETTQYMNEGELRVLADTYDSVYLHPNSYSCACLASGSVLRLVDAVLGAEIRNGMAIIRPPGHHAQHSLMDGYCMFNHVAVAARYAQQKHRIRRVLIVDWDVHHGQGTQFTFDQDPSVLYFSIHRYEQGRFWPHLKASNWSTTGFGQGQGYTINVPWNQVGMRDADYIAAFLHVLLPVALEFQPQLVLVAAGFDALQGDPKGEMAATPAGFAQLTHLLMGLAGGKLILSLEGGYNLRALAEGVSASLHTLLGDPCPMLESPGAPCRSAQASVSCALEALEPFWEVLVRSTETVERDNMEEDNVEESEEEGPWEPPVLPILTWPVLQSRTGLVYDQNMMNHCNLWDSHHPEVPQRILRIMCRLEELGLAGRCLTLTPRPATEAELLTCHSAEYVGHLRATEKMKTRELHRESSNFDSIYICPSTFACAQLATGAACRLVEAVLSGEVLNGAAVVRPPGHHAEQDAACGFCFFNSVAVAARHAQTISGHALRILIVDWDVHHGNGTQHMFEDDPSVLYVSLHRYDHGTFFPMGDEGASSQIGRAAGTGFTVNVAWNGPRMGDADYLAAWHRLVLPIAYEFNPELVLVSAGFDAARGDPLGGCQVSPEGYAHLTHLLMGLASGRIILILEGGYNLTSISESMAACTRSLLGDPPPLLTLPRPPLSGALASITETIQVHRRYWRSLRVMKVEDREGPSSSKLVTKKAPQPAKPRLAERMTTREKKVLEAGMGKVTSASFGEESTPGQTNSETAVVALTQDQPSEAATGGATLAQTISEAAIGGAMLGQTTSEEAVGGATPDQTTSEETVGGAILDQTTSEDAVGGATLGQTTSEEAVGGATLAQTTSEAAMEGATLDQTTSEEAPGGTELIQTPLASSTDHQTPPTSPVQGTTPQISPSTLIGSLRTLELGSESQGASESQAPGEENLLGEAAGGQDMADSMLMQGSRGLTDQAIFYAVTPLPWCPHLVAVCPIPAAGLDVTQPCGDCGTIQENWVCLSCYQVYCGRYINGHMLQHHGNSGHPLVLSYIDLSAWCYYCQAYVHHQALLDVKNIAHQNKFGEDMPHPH
Experiment: Inhibition of recombinant full length human HDAC6 expressed in baculovirus infected Sf9 cells using Z-(Ac)-Lys-AMC as substrate incubated for 40 mins by fluorescence based assay
Assignment: determine reported pIC50 for the given compounds.
Keep in mind that pIC50 stands for -log10 of concentration in molar terms.

Enquiry: Which measured pIC50 value corresponds to "O=C(NO)c1ccc(NCc2nc(-c3ccccc3)nn2-c2ccccc2)cc1" ?
Return: 6.95

Enquiry: Request the reported pIC50 associated with "O=C(NO)c1ccc(NCc2nc(-c3cccc(Cl)c3)nn2-c2ccccc2)cc1"
Return: 6.94

Enquiry: Can you share its pIC50? I mean this compound: "COc1ccc(-c2nc(CNc3ccc(C(=O)NO)cc3)n(-c3ccccc3)n2)cc1"
Return: 6.79

Enquiry: Form field: reported pIC50 of "O=C(NO)c1ccc(NCc2nc(-c3ccc(F)cc3)nn2-c2ccccc2)cc1"
Return: 6.94
